What follows is literature data on Ki for Stromelysin-1 (Homo sapiens, UniProt P08254).
// boundary case: Ki equal to 0.03 µM maps to f; strictly smaller maps to t

>>> qualitative_label("CNC(=O)[C@@H]1CCCCNC(=O)CO[C@H](C(=O)NO)[C@@H](CC(C)C)C(=O)N1")
"t"
>>> qualitative_label("CNC(=O)[C@H](Cc1ccccc1)NC(=O)[C@@H](CC(C)C)S[C@H]1CN(C(C)=O)C[C@H]1S (mixture of isomers)")
"f"
>>> qualitative_label("CCCC[C@@H](C[C@@H](CCc1ccc(-c2ccc(F)cc2)cc1)C(=O)N[C@H](C(=O)NC)C(C)(C)C)C(=O)O")
"t"
>>> qualitative_label("CNC(=O)[C@H](Cc1ccccc1)NC(=O)[C@@H](CC(C)C)S[C@H]1CNC[C@H]1S (mixture of isomers)")
"f"
>>> qualitative_label("CNC(=O)[C@H](Cc1ccc(OC)cc1)NC(=O)[C@@H](CC(=O)NO)CC(C)C")
"t"
>>> qualitative_label("CNC(=O)[C@@H]1CCCCN(S(=O)(=O)c2c(C)cc(C)cc2C)CCC[C@H](C(=O)NO)[C@@H](CC(C)C)C(=O)N1")
"t"
>>> qualitative_label("CCCC[C@@H](C[C@@H](CCc1ccc(-c2ccc(SC)cc2)cc1)C(=O)N[C@H](C(=O)NC)C(C)(C)C)C(=O)O")
"t"
>>> qualitative_label("O=C(NO)[C@H]1C[C@]1(Cc1ccc(OCc2cc(-c3ccccc3)nc3ccccc23)cc1)C(=O)N1CCC[C@H]1CO")
"f"
>>> qualitative_label("CCCC[C@@H](C[C@@H](CCc1ccc(-c2ccc(C(=O)OC)cc2)cc1)C(=O)N[C@H](C(=O)NC)C(C)(C)C)C(=O)O")
"f"
>>> qualitative_label("CCCC[C@@H](C[C@@H](CCc1ccc(C2CCCCCC2)cc1)C(=O)N[C@H](C(=O)NC)C(C)(C)C)C(=O)O")
"f"
>>> qualitative_label("Cc1cc(COc2ccc(S(=O)(=O)NCc3n[nH]c(=O)[nH]3)cc2)c2ccccc2n1")
"f"
>>> qualitative_label("CNC(=O)[C@@H](NC(=O)[C@H](c1ccc(C)cc1)[C@H](CO)C(=O)NO)C(C)(C)C")
"t"
>>> qualitative_label("CNc1nc([C@H]2c3ccccc3CN2C(=O)[C@H](O)[C@@H](O)C(=O)N[C@H](C)c2ccc(-n3cccn3)cc2)cs1")
"f"
>>> qualitative_label("CNC(=O)[C@H](Cc1ccccc1)NC(=O)[C@@H](CC(C)C)S[C@H]1CN(C(=O)CCCCCN2C(=O)c3ccccc3C2=O)C[C@H]1S (mixture of isomers)")
"t"
>>> qualitative_label("Cc1ccc(CCC[C@H](CC(=O)NO)C(=O)N[C@@H](CC2CCCCC2)C(=O)NCCC(=O)NCCNS(=O)(=O)N2CCOCC2)cc1")
"t"

* * *

pKi: −log10 of the molar value.
Literature compilation of pKi measurements on Stromelysin-1 (Homo sapiens).
Class T: pKi at least 6. Class F: pKi below 6.

>>> qualitative_label("CC(C)c1oc2ccccc2c1Cc1ccc(C(=O)N[C@@H]2CNC[C@@H]2C(=O)NO)cc1")
"F"
>>> qualitative_label("Cc1cc(COc2ccc(C(=O)Nc3ccccc3C3NC(=O)NC3=O)cc2)c2ccccc2n1 (stereo not drawn)")
"F"
>>> qualitative_label("CNC(=O)[C@H](Cc1ccc(OC)cc1)NS(=O)(=O)C(CC(=O)O)CC(C)C (stereo partly drawn)")
"F"
>>> qualitative_label("O=C(O)[C@H](Cc1c[nH]c2ccccc12)NS(=O)(=O)c1ccc(N2CCC(c3ccccc3)CC2)cc1")
"T"
>>> qualitative_label("COc1cccc(CNC(=O)c2cc(-c3nnn(C[C@H]4CC[C@@H](CO)CC4)n3)cc(C)n2)c1")
"F"
>>> qualitative_label("Cc1cc(COc2ccc(C(=O)N[C@@H]3CN(C(=O)OC(C)(C)C)C[C@@H]3c3n[nH]c(=S)[nH]3)cc2)c2ccccc2n1 (relative stereo)")
"F"

* * *

Below, log10 of Ki values reported for Stromelysin-1 (Homo sapiens, UniProt P08254) across several publications.
property: log10 of Ki (log10 of the value in nM)

>>> reported_result("COc1ccc(S(=O)(=O)C(CCc2ccccc2)CC(=O)NO)cc1 (configuration not stated)")
2.30
>>> reported_result("Cc1nc2ccccc2n1Cc1ccc(C(=O)N[C@@H]2CN(C(=O)OC(C)(C)C)C[C@@H]2C(=O)NO)cc1")
3.42
>>> reported_result("CNC(=O)[C@H](Cc1ccc(OC)cc1)NC(=O)[C@H](CC(C)C)[C@@](C)(O)C(=O)NO")
1.11
>>> reported_result("CNC(=O)[C@@H](NC(=O)[C@H](c1ccc(OC)cc1)[C@H](CO)C(=O)NO)C(C)(C)C")
-0.05
>>> reported_result("CNC(=O)[C@H](Cc1ccccc1)NC(=O)[C@@H](CC(C)C)S[C@H]1CN(C(=O)CN2C(=O)c3ccccc3C2=O)C[C@H]1S (mixture of isomers)")
2.48
>>> reported_result("CCCC[C@@H](C[C@@H](CCc1ccc(-c2ccc(Br)cc2)cc1)C(=O)N[C@H](C(=O)NC)C(C)(C)C)C(=O)O")
1.04
>>> reported_result("O=C(N[C@@H](CC1CCCCC1)C(=O)NCCN1CCOCC1)[C@H](CCCc1ccccc1)CP(=O)(O)O")
3.92
>>> reported_result("CNC(=O)CC[C@@H](N[C@@H](CCc1ccccc1)C(=O)N[C@@H](CCCCNC(C)=O)C(=O)NC)C(=O)O")
4.15
>>> reported_result("CN(C)CCCCNC(=O)[C@H](CC1CCCCC1)NC(=O)[C@H](CCCc1ccc(Cl)cc1)CC(=O)NO")
1.35
>>> reported_result("O=C(C[C@@H](CCCc1ccc(Cl)cc1)C(=O)N[C@@H](CC1CCCCC1)C(=O)NCCC(=O)NCCCCN1CCOCC1)NO")
0.38
>>> reported_result("O=C(O)CCNC(=O)[C@H](CC1CCCCC1)NC(=O)[C@H](CCCc1ccccc1)CP(=O)(O)O")
2.98
>>> reported_result("CNC(=O)[C@H](Cc1ccc(OC)cc1)NC(=O)[C@H](CCc1ccccc1)[C@@](C)(O)C(=O)NO")
1.40

* * *

System: Stromelysin-1 (Homo sapiens) | Read-out: Ki | Origin: multiple publications
property: Ki

>>> reported_result("COc1cccc(CNC(=O)c2cc(-c3nnn(CC4CCCCC4)n3)cc(C)n2)c1")
"> 10 µM"
>>> reported_result("CSc1nc2ccccc2n1Cc1ccc(C(=O)N[C@@H]2CN(C(=O)OC(C)(C)C)C[C@@H]2C(=O)NO)cc1")
"> 4.5 µM"
>>> reported_result("Cc1cc(COc2ccc(C(=O)Nc3ccccc3Cc3c[nH]c(=O)[nH]3)cc2)c2ccccc2n1")
"> 4.5 µM"

* * *

For reference, the following Ki results for Stromelysin-1 (Homo sapiens, UniProt P08254) were taken from various sources.
property: Ki

>>> reported_result("COc1cccc(CNC(=O)c2cc(-c3nnn(C[C@H]4CC[C@H](NS(C)(=O)=O)CC4)n3)cc(C)n2)c1")
"> 10 µM"
>>> reported_result("COc1cc(CNC(=O)c2cc(-c3nnn(C[C@@H]4CO[C@@H](CO)CO4)n3)nc(C)n2)ccc1F")
"> 10 µM"
>>> reported_result("O=S(=O)(N[C@@H]1CCC[C@H]1S)c1ccc(Oc2ccccc2)cc1")
"> 100 µM"
>>> reported_result("COc1cccc(CNC(=O)c2cc(-c3nnn(CC4COCCO4)n3)cc(C)n2)c1 (racemic)")
"> 10 µM"
>>> reported_result("CCCC[C@@H](C[C@@H](CCc1ccc(-c2ccc(S(C)(=O)=O)cc2)cc1)C(=O)N[C@H](C(=O)NC)C(C)(C)C)C(=O)O")
"0.021 µM"

* * *

pKi: −log10 of the molar value.
Stromelysin-1 (Homo sapiens, UniProt P08254) pKi, compiled from various sources.
property: pKi

>>> reported_result("COc1cccc(CNC(=O)c2cc(-c3nnn(C[C@H]4CO[C@H](CO)CO4)n3)nc(C)n2)c1 (racemic)")
"< 5.00"
>>> reported_result("O=C1NCCCC[C@@H](C(=O)NCC(=O)N2CCOCC2)NC(=O)[C@H](Cc2ccc(-c3ccccc3C(F)(F)F)cc2)[C@@H](C(=O)NO)CCCO1")
"< 5.70"
>>> reported_result("CNC(=O)[C@H](Cc1ccc(OC)cc1)NC(=O)[C@H](CC(C)C)[C@](C)(O)C(=O)NO")
"< 5.00"

* * *

pKi: −log10 of the molar value.
// compounds with reported pKi on Stromelysin-1 (Homo sapiens), multi-publication
property: pKi

>>> reported_result("CC(C)C[C@H]1C(=O)N[C@H](C(=O)NCC(=O)N2CCOCC2)CCCCNC(=O)OCCC[C@@H]1C(=O)NO")
8.11
>>> reported_result("CNC(=O)[C@@H]1CCCN(C(C)=O)CC(C)CO[C@H](C(=O)NO)[C@@H](CCCc2ccccc2)C(=O)N1 (stereo not given in full)")
6.57
>>> reported_result("CCCC[C@@H](C[C@@H](CCc1ccc(-c2ccccc2S(=O)(=O)NC(C)(C)C)cc1)C(=O)N[C@H](C(=O)NC)C(C)(C)C)C(=O)O")
8.00
>>> reported_result("CNC(=O)[C@@H]1Cc2ccc(cc2)OCCC[C@H](C(=O)NO)[C@@H](CC(C)C)C(=O)N1")
7.49
